Cited source for all entries: ChEMBL document CHEMBL2218924

// reported residual activity for each item listed
targetEntity: Serine/threonine-protein kinase 24 (Homo sapiens)
setupConditions: at 1 µM

Example cases with answers are listed next.
* Nc1nccc(-c2c(-c3ccc(F)cc3)ncn2C2CCNCC2)n1 | 82%
* Nc1n[nH]c2nc3ccccc3nc12 | 81%
* Oc1cccc(-c2nc(N3CCOCC3)c3oc4ncccc4c3n2)c1 | 75%

Please find the next compound below.
I'd like to know its residual activity. The compound in question is NC(=O)c1ccc(-c2nc(-c3ccc4c(c3)OCCO4)c(-c3ccccn3)[nH]2)cc1
91%

----------
targetEntity: BDNF/NT-3 growth factors receptor (Homo sapiens)
setupConditions: at 10 µM
assayReadout: residual activity (%)
// return numeric value only (unit: %, not printed)

- N#C/C(=C\c1ccc(O)c(O)c1)C(=O)NCc1ccccc1: 102

I'd like to know its residual activity. The molecule in question is COc1cc2ncnc(Nc3cccc(Cl)c3)c2cc1OC
61

I'd like to know its residual activity. The molecule in question is O=C(CCCc1ccc(-c2ccccc2F)cc1)Nc1ccc(O)cc1
100

I'd like to know its residual activity. The molecule in question is COc1cc2c(cc1OC)-c1n[nH]c(Nc3cccc(F)c3)c1C2
31

I'd like to know its residual activity. The molecule in question is Nc1ncnc2c1c(-c1ccc(Oc3ccccc3)cc1)cn2C1CCCC1
-9

I'd like to know its residual activity. The molecule in question is CN([C@@H](Cc1ccc(OS(=O)(=O)c2cccc3cnccc23)cc1)C(=O)N1CCN(c2ccccc2)CC1)S(=O)(=O)c1cccc2cnccc12
50

I'd like to know its residual activity. The molecule in question is NCCNc1ncc(C(N)=O)c(Nc2cccc(C(F)(F)F)c2)n1
29

I'd like to know its residual activity. The molecule in question is Nc1ncnc2c1cnn2-c1ccccc1
97

I'd like to know its residual activity. The molecule in question is Nc1nc(Nc2ccc(S(N)(=O)=O)cc2)nn1C(=O)c1c(F)cccc1F
5

I'd like to know its residual activity. The molecule in question is O=C(NC(NC(=S)Nc1ccc(F)c([N+](=O)[O-])c1)C(Cl)(Cl)Cl)C(c1ccccc1)c1ccccc1 (stereo not given)
89

----------
// reported residual activity for each item listed
targetEntity: MAP kinase-activated protein kinase 3 (Homo sapiens)
setupConditions: at 10 µM
// return numeric value only (unit: %, not printed)

Example cases with answers are listed next.
- Nc1ncnc2c1cnn2-c1ccccc1: 92
- O=C1Cc2c([nH]c3ccc(Br)cc23)-c2ccccc2N1: 89

Please find the next compound below.
I'd like to know its residual activity. The compound in question is CC(C)(C)n1nc(Cc2cccc3ccccc23)c2c(N)ncnc21
90

----------
targetEntity: Vascular endothelial growth factor receptor 3 (Homo sapiens) (UniProt P35916)
Sequence (P35916 whole entry): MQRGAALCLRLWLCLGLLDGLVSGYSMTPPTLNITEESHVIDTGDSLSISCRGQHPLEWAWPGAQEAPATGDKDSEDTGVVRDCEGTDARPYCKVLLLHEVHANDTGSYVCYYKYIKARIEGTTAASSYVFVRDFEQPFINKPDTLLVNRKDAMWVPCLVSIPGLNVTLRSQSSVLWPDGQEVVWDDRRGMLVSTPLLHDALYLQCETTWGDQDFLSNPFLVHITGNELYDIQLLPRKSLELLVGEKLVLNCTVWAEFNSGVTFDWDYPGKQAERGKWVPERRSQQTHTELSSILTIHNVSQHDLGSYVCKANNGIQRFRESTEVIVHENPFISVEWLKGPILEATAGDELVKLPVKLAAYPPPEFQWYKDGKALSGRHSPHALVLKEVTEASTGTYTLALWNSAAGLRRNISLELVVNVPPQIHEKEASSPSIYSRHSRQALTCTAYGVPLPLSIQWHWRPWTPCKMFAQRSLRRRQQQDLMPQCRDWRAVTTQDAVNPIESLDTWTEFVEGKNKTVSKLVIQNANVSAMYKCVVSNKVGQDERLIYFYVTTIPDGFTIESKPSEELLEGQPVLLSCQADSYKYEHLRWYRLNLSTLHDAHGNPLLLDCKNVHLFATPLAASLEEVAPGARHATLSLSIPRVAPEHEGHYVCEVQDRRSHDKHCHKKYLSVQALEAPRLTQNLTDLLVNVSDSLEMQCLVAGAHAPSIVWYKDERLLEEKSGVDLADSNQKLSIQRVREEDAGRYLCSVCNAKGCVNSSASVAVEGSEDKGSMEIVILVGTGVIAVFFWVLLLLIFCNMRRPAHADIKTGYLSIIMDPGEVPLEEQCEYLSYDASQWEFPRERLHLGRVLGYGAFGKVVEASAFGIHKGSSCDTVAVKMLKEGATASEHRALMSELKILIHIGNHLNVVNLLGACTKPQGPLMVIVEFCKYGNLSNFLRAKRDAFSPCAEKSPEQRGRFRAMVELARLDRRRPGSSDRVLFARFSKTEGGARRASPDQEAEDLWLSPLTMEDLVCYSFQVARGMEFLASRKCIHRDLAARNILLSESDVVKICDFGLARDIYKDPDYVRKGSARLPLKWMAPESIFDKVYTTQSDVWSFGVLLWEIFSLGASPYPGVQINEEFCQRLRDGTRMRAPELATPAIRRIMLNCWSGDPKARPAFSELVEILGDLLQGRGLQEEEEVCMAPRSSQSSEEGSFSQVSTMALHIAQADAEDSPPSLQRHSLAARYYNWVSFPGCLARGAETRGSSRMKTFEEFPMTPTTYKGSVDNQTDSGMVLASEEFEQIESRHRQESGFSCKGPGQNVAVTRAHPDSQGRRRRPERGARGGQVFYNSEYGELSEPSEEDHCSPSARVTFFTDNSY
setupConditions: at 10 µM
// boundary case: residual activity equal to 7% maps to false (0); strictly smaller maps to true (1)

• CC(C)c1nn(-c2c(Cl)cccc2Cl)c2nc(Cc3ccc(OCCO)cc3)[nH]c(=O)c12 = false (0)
• CCOC(=O)c1c(C)[nH]c(/C=C2\C(=O)Nc3ccccc32)c1C = true (1)
• COc1ccc(Cl)cc1NC(=O)Nc1cc(C)nc2ccccc12 = false (0)
• O=C(O)/C=C/c1cc(Br)c(Br)c(Br)c1Br = false (0)
• c1ccc(-c2cnc(Nc3ccc(OCCN4CCCC4)cc3)s2)cc1 = true (1)
• Fc1ccc(-c2nc3n(c2-c2ccncc2)CCS3)cc1 = false (0)
• COc1ccc2c(c1)c(C1=C(c3c[nH]c4ccccc34)C(=O)NC1=O)cn2CCCN(C)C = true (1)
• CSc1nc(-c2ccc(F)cc2)c(-c2ccnc(NC(C)c3ccccc3)c2)[nH]1 (stereo unspecified) = false (0)
• NC(=O)c1cccc(-c2cc(Nc3ccc(OC(F)(F)F)cc3)ncn2)c1 = false (0)

Okay, next one:
Find out if reported residual activity for O=c1cc(N2CCOCC2)oc2c(-c3ccccc3)cccc12 is less than 7%
false (0)

----------
targetEntity: Dual specificity mitogen-activated protein kinase kinase 6 (Homo sapiens) (UniProt P52564)
Sequence (P52564 whole entry): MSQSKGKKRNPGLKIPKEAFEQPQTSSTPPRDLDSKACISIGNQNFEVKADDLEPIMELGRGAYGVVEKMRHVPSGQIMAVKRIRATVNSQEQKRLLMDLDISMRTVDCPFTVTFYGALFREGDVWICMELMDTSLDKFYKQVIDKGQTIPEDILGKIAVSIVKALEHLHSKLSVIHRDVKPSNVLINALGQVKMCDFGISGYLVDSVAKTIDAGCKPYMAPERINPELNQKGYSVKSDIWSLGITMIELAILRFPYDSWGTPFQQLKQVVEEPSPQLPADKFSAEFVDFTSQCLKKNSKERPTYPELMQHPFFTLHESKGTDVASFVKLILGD
setupConditions: at 1 µM
assayReadout: residual activity
Answer with the value and then the unit.

- O=C(CCCc1ccc(-c2ccccc2F)cc1)Nc1ccc(O)cc1: 98%
- Cc1cc(C)c(/C=C2\C(=O)Nc3ccccc32)[nH]1: 60%
- Nc1ncnc2c1cnn2-c1ccccc1: 79%

I'd like to know its residual activity. The molecule in question is c1ccc(-c2cnc(Nc3ccc(OCCN4CCCC4)cc3)s2)cc1
77%

I'd like to know its residual activity. The molecule in question is O=C1Nc2ccc(Cl)cc2/C1=C/c1cc(Cl)c(O)c(Cl)c1
82%

I'd like to know its residual activity. The molecule in question is NCCNc1ncc(C(N)=O)c(Nc2cccc(C(F)(F)F)c2)n1
18%

I'd like to know its residual activity. The molecule in question is O=C1Cc2c([nH]c3ccc([N+](=O)[O-])cc23)-c2ccccc2N1
79%

I'd like to know its residual activity. The molecule in question is CC(C)(C)c1nc2c3ccc(F)cc3c3c(=O)[nH]ccc3c2[nH]1
39%

I'd like to know its residual activity. The molecule in question is CC(C)[C@H](CO)Nc1nc(Nc2cc(N)cc(Cl)c2)c2ncn(C(C)C)c2n1
93%

I'd like to know its residual activity. The molecule in question is COc1cc2nccc(Oc3ccc(NC(=S)NC(=O)c4ccccc4C)cc3)c2cc1OC
65%

I'd like to know its residual activity. The molecule in question is Oc1cccc(-c2nc(N3CCOCC3)c3oc4ncccc4c3n2)c1
91%

I'd like to know its residual activity. The molecule in question is O=C(Nc1nc2ccccc2n1CCN1CCOCC1)c1cccc([N+](=O)[O-])c1
73%

----------
targetEntity: Activated CDC42 kinase 1 (Homo sapiens)
setupConditions: at 10 µM
// boundary case: residual activity equal to 60% maps to condition not met; strictly smaller maps to condition met

Previously resolved entries follow.
* O=C(CCCc1ccc(-c2ccccc2F)cc1)Nc1ccc(O)cc1 | condition not met
* Nc1nc(Nc2ccc(S(N)(=O)=O)cc2)nn1C(=O)c1c(F)cccc1F | condition met

Find out if reported residual activity for Nc1ncnc2[nH]nc(Nc3ccc(F)cc3)c12 is less than 60%
condition met

Find out if reported residual activity for O=C(c1ccccc1)c1ccc(N2CCOCC2)cc1O is less than 60%
condition not met

Find out if reported residual activity for COc1ccc(COc2ccc(Cc3cnc(N)nc3N)cc2OC)cc1 is less than 60%
condition not met

Find out if reported residual activity for CCN(CC)CCNC(=O)c1c(C)[nH]c(/C=C2\C(=O)Nc3ccc(Cl)cc32)c1C is less than 60%
condition met

Find out if reported residual activity for N#C/C(=C\c1ccc(O)c(O)c1)C(=O)NCc1ccccc1 is less than 60%
condition not met

Find out if reported residual activity for Nc1ncnc2c1c(-c1ccc(Oc3ccccc3)cc1)cn2C1CCCC1 is less than 60%
condition met

Find out if reported residual activity for O=S(=O)(NCCNC/C=C/c1ccc(Br)cc1)c1cccc2cnccc12 is less than 60%
condition met

Find out if reported residual activity for CCOC(=O)c1c(C)[nH]c(/C=C2\C(=O)Nc3ccccc32)c1C is less than 60%
condition not met

Find out if reported residual activity for CC(C)[C@H](CO)Nc1nc(Nc2cc(N)cc(Cl)c2)c2ncn(C(C)C)c2n1 is less than 60%
condition met

----------
targetEntity: Serine/threonine-protein kinase BRSK2 (Homo sapiens) (UniProt Q8IWQ3)
Sequence (Q8IWQ3 whole entry): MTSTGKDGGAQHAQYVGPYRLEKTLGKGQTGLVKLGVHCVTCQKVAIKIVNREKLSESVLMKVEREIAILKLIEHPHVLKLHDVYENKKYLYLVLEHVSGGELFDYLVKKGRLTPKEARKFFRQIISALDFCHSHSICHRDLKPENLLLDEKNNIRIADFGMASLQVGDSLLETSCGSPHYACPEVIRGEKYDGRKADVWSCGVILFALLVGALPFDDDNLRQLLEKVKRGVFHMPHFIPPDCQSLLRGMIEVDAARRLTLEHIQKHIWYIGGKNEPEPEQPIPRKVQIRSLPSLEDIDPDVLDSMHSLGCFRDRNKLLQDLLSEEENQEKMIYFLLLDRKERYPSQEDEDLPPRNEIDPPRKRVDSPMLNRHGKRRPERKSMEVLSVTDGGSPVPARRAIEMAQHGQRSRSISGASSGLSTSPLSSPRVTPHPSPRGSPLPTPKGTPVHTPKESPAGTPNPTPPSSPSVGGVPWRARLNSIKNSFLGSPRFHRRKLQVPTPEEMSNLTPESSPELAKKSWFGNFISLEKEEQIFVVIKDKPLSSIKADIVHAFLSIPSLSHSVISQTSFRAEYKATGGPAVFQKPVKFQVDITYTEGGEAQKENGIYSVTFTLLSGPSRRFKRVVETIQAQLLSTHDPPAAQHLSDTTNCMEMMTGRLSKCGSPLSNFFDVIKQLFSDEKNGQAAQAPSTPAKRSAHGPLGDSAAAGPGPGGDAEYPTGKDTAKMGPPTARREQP
setupConditions: at 1 µM
assayReadout: residual activity (%)
// return numeric value only (unit: %, not printed)

Example cases with answers are listed next.
• Oc1cccc(-c2nc(N3CCOCC3)c3oc4ncccc4c3n2)c1 = 96
• CC(C)(C)n1nc(Cc2cccc3ccccc23)c2c(N)ncnc21 = 111
• O=C1Nc2ccc(Cl)cc2/C1=C/c1cc(Cl)c(O)c(Cl)c1 = 86

I'd like to know its residual activity. The molecule in question is CCCCc1c(-c2ccc(OC)cc2)[nH]c2nccnc12
104

I'd like to know its residual activity. The molecule in question is COc1ccc2c(c1)c(C1=C(c3c[nH]c4ccccc34)C(=O)NC1=O)cn2CCCN(C)C
67

I'd like to know its residual activity. The molecule in question is O=C(c1ccccc1)c1ccc(N2CCOCC2)cc1O
112

I'd like to know its residual activity. The molecule in question is Nc1nccc(-c2c(-c3ccc(F)cc3)ncn2C2CCNCC2)n1
128

I'd like to know its residual activity. The molecule in question is O=C1NC(=O)c2c1c1c3ccccc3[nH]c1n1cncc21
23

----------
targetEntity: Vascular endothelial growth factor receptor 3 (Homo sapiens)
setupConditions: at 1 µM
// reported residual activity for each item listed
// return numeric value only (unit: %, not printed)

Example cases with answers are listed next.
- Cc1cc(C)c(/C=C2\C(=O)Nc3ccccc32)[nH]1: 1
- Nc1nc(Nc2ccc(S(N)(=O)=O)cc2)nn1C(=O)c1c(F)cccc1F: 1
- COc1cc2nccc(Oc3ccc(NC(=S)NC(=O)c4ccccc4C)cc3)c2cc1OC: 1
- Nc1ncnc2c1c(-c1ccc(Oc3ccccc3)cc1)cn2C1CCCC1: 1
- Nc1ncnc2[nH]nc(Nc3ccc(F)cc3)c12: 80
- COc1ccc(CNC(=O)Nc2ncc([N+](=O)[O-])s2)cc1: 59
- Nc1nccc(-c2c(-c3ccc(F)cc3)ncn2C2CCNCC2)n1: 69
- O=C1NC(=O)c2c1c1c3ccccc3[nH]c1n1cncc21: 0

Please find the next molecule below.
I'd like to know its residual activity. The molecule in question is COc1ccc2c(c1)c(C1=C(c3c[nH]c4ccccc34)C(=O)NC1=O)cn2CCCN(C)C
2
